- protocol.text: FRG1 promoter luciferase signal modulators, primary screen, FRG1 inhibition for FSHD, cell-based, C2C12 myotubes, firefly/Renilla luciferase, luminescence (AID 1084)
- test.context: higher = more signal, called active from +8 up or from −8 down
assay.readout: z-score
One number for each entry.

Previously resolved entries follow.
>>> recorded_measurement("CCC=CCCC(OC(=O)c1ccc(Br)cc1)C1=CCCCC1=O (centres undefined)")
0.796
>>> recorded_measurement("CCOC(=O)[C@H](Cc1ccccc1)NC(=O)CCC1CC(OC(=O)NCc2cccc3ccccc23)CC2(CCCC(COC(=O)NCc3cccc(C(F)(F)F)c3)O2)O1 (some centres undefined)")
-1.05
>>> recorded_measurement("CO[C@H]1COC(=O)CCC[C@@H](C)[C@H](OC)COC(=O)[C@@H](C)NC(=O)CC=C[C@@H]1C")
0.947
>>> recorded_measurement("CC(C)CON=C1C[C@@H](O)[C@@H](O)[C@@H]2[C@@H]3C(=O)N(C[C@@H]4CCCO4)C(=O)[C@@H]3CC[C@@H]12")
-0.108
>>> recorded_measurement("COC(=O)CC=C[C@@H](C)[C@@H](C=NO[C@@H]1O[C@H](COC(C)=O)[C@@H](OC(C)=O)[C@H](OC(C)=O)[C@H]1OC(C)=O)NS(=O)(=O)c1ccc(C)cc1")
-0.443
>>> recorded_measurement("CCc1cc2c(nc1CC)CCN(CCC(C)=NO[C@H](C)c1cn([C@H](CO)Cc3ccccc3)nn1)C2")
0.834

Hi! Can you tell me z-score for each of these compounds?
1. C[C@@H](c1ccccc1)N1C(=O)[C@H]2[C@H]3[C@H](O)[C@H](O)CC(=NO[C@@H]4O[C@H](CO)[C@@H](O)[C@H](O)[C@H]4O)[C@H]3CC[C@H]2C1=O
2. CO[C@H]1COC(=O)[C@@H](C)COC(=O)[C@H](COCc2ccccc2)NC(=O)CC=C[C@H]1C
3. CC(=O)OC[C@H]1O[C@H](C#Cc2ccccc2)C=C[C@@H]1OC(C)=O

Solution:
-0.412
-0.335
-0.284

---

- System: Plasmodium falciparum Sir2 (PF13_0152, Sir2A)
- protocol.text: pfSir2 binders on small-molecule microarrays, primary screen, biochemical, small-molecule microarray, 635 nm fluorescence (AID 1098);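 further: score merges spot fluorescence intensity with its signal-to-noise ratio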
- test.context: small-molecule microarray binding, fluorescence 635 nm; higher = more signal
Kind request: treat 0.8 as inclusive, so composite z-score at 0.8 or higher is 1, anything lower is 0.

// known answers, use as guide
>>> assigned_category("CCOC(=O)[C@H](Cc1ccccc1)NC(=O)OC1CC(CCC2CC(CC)=NO2)OC2(CCCC(COC(=O)NCCC(C)C)O2)C1 (some centres not stated)")
0
>>> assigned_category("CO[C@H]1COC(=O)[C@H](C)NC(=O)CC=C[C@@H](C)[C@H](OC)COC(=O)[C@@H](OCc2ccccc2)C=C[C@@H]1C")
0
>>> assigned_category("C#CCCCON=C1C[C@@H](O)[C@@H](O)[C@@H]2[C@@H]3C(=O)N(C(C)(C)C)C(=O)[C@@H]3CC[C@@H]12")
1
>>> assigned_category("CC(CCN1CCCc2nc(C)c(C)cc21)=NOC(C)CN1CCCCc2nc(C)c(C)cc21 (configuration not stated)")
1
>>> assigned_category("CCOC(=O)[C@H](CC(C)C)NC(=O)CCC1CC(OC(=O)NCCc2ccc(F)cc2)CC2(CCCC(COC(=O)NCCOc3ccccc3)O2)O1 (some centres not stated)")
1

Problem: Decide: composite z-score of CON=C[C@@H](NS(=O)(=O)c1ccc(C)cc1)[C@H](C)C=CCC(=O)OC >= 0.8?
Solution: 0
